PROTOCOL SUMMARY: Single dose clinical study: plasma Compound A pharmacokinetics
Format: in vivo, human
TEST CONDITIONS: human, plasma, po, 400 mg, plasma, Non-Japanese Subjects (Parts A,B), single oral 400 mg; read-out: Vz/F GM (% CV)
QUANTITY: Vd/F (L)
Give bare numbers, in L.

Entry COc1ncc(C)c(-c2ccc3c(c2)[nH]c(=O)c2cnn([C@H]4CCOC4)c23)c1C , Vd/F reported as 511

----------
PROTOCOL SUMMARY: Single dose clinical study: plasma Compound A pharmacokinetics
Type: in vivo, human
TEST CONDITIONS: human, plasma, po, 50 mg, plasma, healthy adults (Parts A,B), single oral 50 mg, fasted; read-out: AUC(0-inf) GM
QUANTITY: AUC(0-inf) (ng·h/mL)
Give bare numbers, in ng·h/mL.

Value of AUC(0-inf) reported for the molecule COc1ncc(C)c(-c2ccc3c(c2)[nH]c(=O)c2cnn([C@H]4CCOC4)c23)c1C is 7900

----------
PROTOCOL SUMMARY: Multiple ascending dose study: plasma pharmacokinetics
Assay type: in vivo
TEST CONDITIONS: human, po, 5 mg, Day 14, 5 mg QD oral, read-out: AUC(0-inf) Median
QUANTITY: AUC(0-inf) (µg·h/mL)
Answers are plain numbers, in µg·h/mL.

Per the record, COc1ncc(C)c(-c2ccc3c(c2)[nH]c(=O)c2cnn([C@H]4CCOC4)c23)c1C has AUC(0-inf) of 2.51

----------
PROTOCOL SUMMARY: Single dose clinical study Parts A and C: urine Compound A pharmacokinetics
Assay type: in vivo, human
TEST CONDITIONS: human, po, 100 mg, healthy adults Part A, single oral 100 mg
QUANTITY: CL renal (mL/min)
Numbers only, in mL/min.

Entry under test: COc1ncc(C)c(-c2ccc3c(c2)[nH]c(=O)c2cnn([C@H]4CCOC4)c23)c1C [Compound A] . Its CL renal was 0.37

----------
PROTOCOL SUMMARY: Single dose clinical study: plasma Compound A pharmacokinetics
Assay type: in vivo, human
TEST CONDITIONS: human, plasma, po, 75 mg, plasma, healthy adults (Parts A,B), single oral 75 mg, fasted; read-out: AUC(0-30 h) GM
Description: This was a single center, single dose, randomized, double blind, placebo controlled study in healthy subjects. It consisted of 4 parts: Parts A, B, C, and D. Each of the four study parts had 2 phases: Prerandomization Phase and Randomization Phase. The Prerandomization Phase lasted up to 30 days and consisted of a Screening Period and a Baseline Period, during which each subject's study eligibility was determined and baseline assessments were performed. […]
QUANTITY: AUC(0-t) (ng·h/mL)
Answers are plain numbers, in ng·h/mL.

Given item COc1ncc(C)c(-c2ccc3c(c2)[nH]c(=O)c2cnn([C@H]4CCOC4)c23)c1C [Compound A] , the value recorded as its AUC(0-t) is 4460

----------
PROTOCOL SUMMARY: Multiple ascending dose study: plasma pharmacokinetics
Format: in vivo
TEST CONDITIONS: human, po, 200 mg, Day 1, 200 mg QD oral, read-out: tmax Median
QUANTITY: Tmax (h)
Numbers only, in h.

// field: Tmax; key: COc1ncc(C)c(-c2ccc3c(c2)[nH]c(=O)c2cnn([C@H]4CCOC4)c23)c1C ; value = 2.01

Measured values drawn from patent US20220378706A1 for this set.
